For each entry below, report its APD, Post-administration value.
system: ventricular papillary muscle cell of guinea pig; experiment: Action potential of the ventricular papillary muscle cell of guinea pig (electrophysiological recording); assay type: cell-based; conditions: screening stage; 0.05 μM; about 20 min perfusion
Give bare numbers.

Worked examples follow.
>>> test_result("CN[C@H]1CC[C@]23C[C@]24CC[C@]2(C)C(C(=O)CO)=CC[C@@]2(C)[C@@H]4CC[C@H]3C1(C)C")
0.975
>>> test_result("CN[C@H]1CC[C@]23C[C@]24CC[C@]2(C)C(/C(C)=N\\O)=CC[C@@]2(C)[C@@H]4CC[C@H]3C1(C)C")
0.1047
>>> test_result("CCN(C)[C@H]1CC[C@]23C[C@]24CC[C@]2(C)C(C(C)=O)=CC[C@@]2(C)[C@@H]4CC[C@H]3C1(C)C")
0.0841
>>> test_result("CN[C@H]1CC[C@]23C[C@]24CC[C@]2(C)C(C(=O)COC(=O)c5ccccc5)=CC[C@@]2(C)[C@@H]4CC[C@H]3C1(C)C")
0.820
>>> test_result("CN[C@H]1CC[C@]23C[C@]24CC[C@]2(C)C(C(C)=O)=CC[C@@]2(C)[C@@H]4CC[C@H]3C1(C)C")
0.1168

# batch: return APD, Post-administration for each of the 2 compounds below
1. CN[C@H]1CC[C@]23C[C@]24CC[C@]2(C)C(/C(C)=N\OC)=CC[C@@]2(C)[C@@H]4CC[C@H]3C1(C)C
2. CN[C@H]1CC[C@]23C[C@]24CC[C@]2(C)C(C(=O)COC(=O)c5ccccc5C(=O)O)=CC[C@@]2(C)[C@@H]4CC[C@H]3C1(C)C.Cl

[0.764, 0.928]

====

assay: Pharmacokinetics in Beagle canines; format: in vivo; conditions: male, Beagle, dog, in vivo, po, 2 mg/kg
RECORDED METRIC: half-life (min)
One number for each entry, in min.

# get_value(readout='half-life', item= CN[C@H]1CC[C@]23C[C@]24CC[C@]2(C)C(C(C)=O)=CC[C@@]2(C)[C@@H]4CC[C@H]3C1(C)C ) 667

====

For each entry below, report its percent change in action potential duration at 0.05 µM value.
tested on: ventricular papillary muscle cell of guinea pig; assay: Action potential of the ventricular papillary muscle cell of guinea pig (electrophysiological recording); format: cell-based; settings: Cavia porcellus, 20 min, screening stage; 0.05 μM; read-out: APD, Change rate (%)
Provide a numeric answer, followed by its unit.

>>> test_result("CN[C@H]1CC[C@]23C[C@]24CC[C@]2(C)C(C(=O)COC(=O)c5ccccc5C(=O)O)=CC[C@@]2(C)[C@@H]4CC[C@H]3C1(C)C.Cl [Compound 570, hydrochloride]")
"30.5%"
>>> test_result("CN[C@H]1CC[C@]23C[C@]24CC[C@]2(C)C(C(=O)COC(=O)c5ccccc5)=CC[C@@]2(C)[C@@H]4CC[C@H]3C1(C)C")
"9.63%"
>>> test_result("CCN(C)[C@H]1CC[C@]23C[C@]24CC[C@]2(C)C(C(C)=O)=CC[C@@]2(C)[C@@H]4CC[C@H]3C1(C)C")
"11.8%"
>>> test_result("CC(=O)C1=CC[C@@]2(C)[C@@H]3CC[C@H]4C(C)(C)[C@@H](N(C)C5CC5)CC[C@@]45C[C@@]35CC[C@]12C")
"6.07%"

# batch: return percent change in action potential duration at 0.05 µM for each of the 2 compounds below
1. CN[C@H]1CC[C@]23C[C@]24CC[C@]2(C)C(C(=O)CO)=CC[C@@]2(C)[C@@H]4CC[C@H]3C1(C)C
2. CN[C@H]1CC[C@]23C[C@]24CC[C@]2(C)C(C(=O)COC(C)=O)=CC[C@@]2(C)[C@@H]4CC[C@H]3C1(C)C

["40.1%", "42.9%"]

====

assay: Pharmacokinetics in SD rats; format: in vivo, rat; conditions: male, SD, rat, in vivo, iv, 2 mg/kg
RECORDED METRIC: Tmax

# get_value(readout='Tmax', item= CN[C@H]1CC[C@]23C[C@]24CC[C@]2(C)C(C(C)=O)=CC[C@@]2(C)[C@@H]4CC[C@H]3C1(C)C ) 15 min

====

assay: Pharmacokinetics in SD rats; assay type: in vivo, rat; settings: male, SD, rat, in vivo, iv, 2 mg/kg
RECORDED METRIC: Cmax (ng/mL)
Numbers only, in ng/mL.

# get_value(readout='Cmax', item= CN[C@H]1CC[C@]23C[C@]24CC[C@]2(C)C(C(C)=O)=CC[C@@]2(C)[C@@H]4CC[C@H]3C1(C)C ) 103

====

test: Pharmacokinetics in Beagle canines; format: in vivo; conditions: male, Beagle, dog, in vivo, po, 2 mg/kg
RECORDED METRIC: AUC(0-t) (ng·h/mL)
One number for each entry, in ng·h/mL.

# get_value(readout='AUC(0-t)', item= CN[C@H]1CC[C@]23C[C@]24CC[C@]2(C)C(C(C)=O)=CC[C@@]2(C)[C@@H]4CC[C@H]3C1(C)C [Compound 369] ) 505

====

assay: Pharmacokinetics in SD rats; assay type: in vivo, rat; conditions: male, SD, rat, in vivo, iv, 2 mg/kg
RECORDED METRIC: AUC(0-t) (ng·h/mL)
One number for each entry, in ng·h/mL.

# get_value(readout='AUC(0-t)', item= CN[C@H]1CC[C@]23C[C@]24CC[C@]2(C)C(C(C)=O)=CC[C@@]2(C)[C@@H]4CC[C@H]3C1(C)C [Compound 369] ) 249

====

test system: ventricular papillary muscle cell of guinea pig; test: Action potential of the ventricular papillary muscle cell of guinea pig (electrophysiological recording); type: cell-based; conditions: Cavia porcellus, 20 min, screening stage; 0.05 μM; read-out: APD, Change rate (%)
RECORDED METRIC: percent change in action potential duration at 0.05 µM (%)
Answers are plain numbers, in %.

Worked examples follow.
>>> test_result("CN[C@H]1CC[C@]23C[C@]24CC[C@]2(C)C(C(C)=O)=CC[C@@]2(C)[C@@H]4CC[C@H]3C1(C)C")
65.7
>>> test_result("CN[C@H]1CC[C@]23C[C@]24CC[C@]2(C)C(/C(C)=N\\OC)=CC[C@@]2(C)[C@@H]4CC[C@H]3C1(C)C")
9.46
>>> test_result("CN(C)[C@H]1CC[C@]23C[C@]24CC[C@]2(C)C(C(=O)CO)=CC[C@@]2(C)[C@@H]4CC[C@H]3C1(C)C [Compound 399a]")
38.4

Now consider the entry below.
# get_value(readout='percent change in action potential duration at 0.05 µM', item= CN[C@H]1CC[C@]23C[C@]24CC[C@]2(C)C(C(=O)COC(=O)CCC(=O)O)=CC[C@@]2(C)[C@@H]4CC[C@H]3C1(C)C.Cl [Compound 522, hydrochloride] ) 36

====

Experiment: Single-dose toxicity (MTD) in SD rats
Assay type: in vivo
Conditions: in vivo; SD rat; single intravenous injection; read-out: Maximum tolerance dose (MTD)
Text: The results of the experimental study on the toxicity of Compound 369 administrated through a single intravenous or intragastrical administration in SD rats and KM mice are shown in Table 9.
RECORDED METRIC: MTD (mg/kg)
Numbers only, in mg/kg.

# get_value(readout='MTD', item= CN[C@H]1CC[C@]23C[C@]24CC[C@]2(C)C(C(C)=O)=CC[C@@]2(C)[C@@H]4CC[C@H]3C1(C)C ) 45

====

test: Single-dose toxicity (MTD) in KM mice; assay type: in vivo; conditions: in vivo, po; KM mouse; single intragastrical administration; read-out: Maximum tolerance dose (MTD)
RECORDED METRIC: MTD (mg/kg)
Answers are plain numbers, in mg/kg.

# get_value(readout='MTD', item= CN[C@H]1CC[C@]23C[C@]24CC[C@]2(C)C(C(C)=O)=CC[C@@]2(C)[C@@H]4CC[C@H]3C1(C)C ) 1000

====

assay: Pharmacokinetics in SD rats; format: in vivo, rat; settings: male, SD, rat, in vivo, po, 2 mg/kg
RECORDED METRIC: half-life (h)
One number for each entry, in h.

# get_value(readout='half-life', item= CN[C@H]1CC[C@]23C[C@]24CC[C@]2(C)C(C(C)=O)=CC[C@@]2(C)[C@@H]4CC[C@H]3C1(C)C ) 3.5

====

system: ventricular papillary muscle cell of guinea pig; experiment: Action potential of the ventricular papillary muscle cell of guinea pig (electrophysiological recording); type: cell-based; settings: Cavia porcellus, 20 min, screening stage; 0.05 μM; read-out: APD, Change rate (%)
RECORDED METRIC: percent change in action potential duration at 0.05 µM (%)
One number for each entry, in %.

Worked examples follow.
>>> test_result("CN[C@H]1CC[C@]23C[C@]24CC[C@]2(C)C(C(C)=O)=C(C)C[C@@]2(C)[C@@H]4CC[C@H]3C1(C)C [Compound 383a]")
30
>>> test_result("CN[C@H]1CC[C@]23C[C@]24CC[C@]2(C)C(C(C)=O)=C(F)C[C@@]2(C)[C@@H]4CC[C@H]3C1(C)C")
24.2

Now consider the entry below.
# get_value(readout='percent change in action potential duration at 0.05 µM', item= CN[C@H]1CC[C@]23C[C@]24CC[C@]2(C)C(/C(C)=N\O)=CC[C@@]2(C)[C@@H]4CC[C@H]3C1(C)C ) 41.3
